- assay.remarks: self-splicing fitness, log relative to wild type (ln ratio); higher = more splicing; Tetrahymena group I intron in knt gene, E. coli kanamycin selection, DiMSum; sequences stand for … in CUCUCU…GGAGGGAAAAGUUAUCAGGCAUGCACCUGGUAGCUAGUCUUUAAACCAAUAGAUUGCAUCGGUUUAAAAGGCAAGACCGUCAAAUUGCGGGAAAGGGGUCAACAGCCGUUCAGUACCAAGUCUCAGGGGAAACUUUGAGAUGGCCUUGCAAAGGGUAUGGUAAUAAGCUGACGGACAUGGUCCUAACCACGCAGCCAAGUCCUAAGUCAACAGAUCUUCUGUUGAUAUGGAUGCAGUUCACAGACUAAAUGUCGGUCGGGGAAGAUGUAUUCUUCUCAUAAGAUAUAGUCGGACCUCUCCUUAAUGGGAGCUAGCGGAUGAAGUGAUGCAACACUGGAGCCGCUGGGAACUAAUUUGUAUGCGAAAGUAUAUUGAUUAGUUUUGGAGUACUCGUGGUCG;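 note: selection with 25 µg/mL kanamycin versus none on LB agar overnight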
- experimental.context: 30 °C
Give Met when the value for self-splicing fitness (ln) is at least -2. Give Not met when it is less.

query: Hi team, for UUCUAGCAAUAUUACGACCA , is the recorded self-splicing fitness (ln) at or above -2?
result: Met

query: Hi team, for AGGUAGCAAUAUUACGGAUU , is the recorded self-splicing fitness (ln) at or above -2?
result: Met

query: Hi team, for GACGAGCAAUAUUACGGCUU , is the recorded self-splicing fitness (ln) at or above -2?
result: Met

query: Hi team, for ACUGAGCAAUAUUACGGAGG , is the recorded self-splicing fitness (ln) at or above -2?
result: Not met

query: Hi team, for GUAUAGCAAUAUUACGUCAC , is the recorded self-splicing fitness (ln) at or above -2?
result: Not met

----------
Give measured self-splicing fitness (ln) for each item. Keep answers brief.
- assay.remarks: self-splicing fitness, log relative to wild type (ln ratio); higher = more splicing; Tetrahymena group I intron in knt gene, E. coli kanamycin selection, DiMSum; sequences stand for … in CUCUCU…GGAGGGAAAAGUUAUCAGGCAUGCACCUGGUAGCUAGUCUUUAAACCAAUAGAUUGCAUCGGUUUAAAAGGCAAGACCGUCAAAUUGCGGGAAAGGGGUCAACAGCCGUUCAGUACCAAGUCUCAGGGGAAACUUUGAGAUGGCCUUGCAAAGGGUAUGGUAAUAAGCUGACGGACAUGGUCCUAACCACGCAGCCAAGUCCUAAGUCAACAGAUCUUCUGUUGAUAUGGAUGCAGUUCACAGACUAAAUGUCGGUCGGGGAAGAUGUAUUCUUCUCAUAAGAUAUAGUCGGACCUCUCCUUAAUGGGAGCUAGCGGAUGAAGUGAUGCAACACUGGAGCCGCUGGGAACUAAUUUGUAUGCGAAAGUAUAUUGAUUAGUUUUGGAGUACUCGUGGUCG
- experimental.context: 30 °C
One number for each entry.

Give me self-splicing fitness (ln) for each of these sequences, listed below.
1. GUCGAGCAAUAUUACGGGGU
2. CCGUAGCAAUAUUACGGAGA
3. CGUCAGCAAUAUUACGUGCU
4. AUCAAGCAAUAUUACGGCUA
5. AACUAGCAAUAUUACGGUUA

result:
[-1.92, -3.01, -3.04, -0.209, -0.722]

Give me self-splicing fitness (ln) for each of these sequences, listed below.
1. AACUAGCAAUAUUACGGGCU
2. UCCGAGCAAUAUUACGAAUG
3. CCCCAGCAAUAUUACGAGAG
4. CGAAAGCAAUAUUACGUGCA
5. AACGAGCAAUAUUACGUUUC
6. GCCGAGCAAUAUUACGUGAA
7. GAGAAGCAAUAUUACGGUCA

result:
-1.29
-2.81
-3.91
-2.12
-3.05
-1.74
-0.263

Give me self-splicing fitness (ln) for each of these sequences, listed below.
1. AGACAGCAAUAUUACGCAGC
2. UGGCAGCAAUAUUACGGGGG
3. UGGCAGCAAUAUUACGCUCC
4. CAUUAGCAAUAUUACGGUUG
5. CAAUAGCAAUAUUACGGGUU
6. CUGCAGCAAUAUUACGAUCU
7. ACCAAGCAAUAUUACGCACC
8. UAGAAGCAAUAUUACGCGGA

result:
-2.72
-3.38
-2.19
-1.63
-4.25
-4.3
-0.532
-1.64

----------
- assay.remarks: self-splicing fitness, log relative to wild type (ln ratio); higher = more splicing; Tetrahymena group I intron in knt gene, E. coli kanamycin selection, DiMSum; sequences stand for … in CUCUCU…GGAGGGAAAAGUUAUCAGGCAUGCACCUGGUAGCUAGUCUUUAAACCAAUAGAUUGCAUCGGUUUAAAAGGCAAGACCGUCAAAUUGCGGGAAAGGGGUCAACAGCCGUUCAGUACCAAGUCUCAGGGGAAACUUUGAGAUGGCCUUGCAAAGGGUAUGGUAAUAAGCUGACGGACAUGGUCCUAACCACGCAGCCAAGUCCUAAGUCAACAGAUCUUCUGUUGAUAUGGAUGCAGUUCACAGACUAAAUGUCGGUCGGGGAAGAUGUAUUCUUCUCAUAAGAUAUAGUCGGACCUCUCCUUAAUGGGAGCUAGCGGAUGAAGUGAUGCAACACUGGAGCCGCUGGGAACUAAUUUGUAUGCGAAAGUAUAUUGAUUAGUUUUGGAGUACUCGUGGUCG
- experimental.context: 37 °C
Give measured self-splicing fitness (ln) for each item. Keep answers brief.

1. GGCCAGCAAUAUUACGGCAC: -1.41

Give me self-splicing fitness (ln) for each of these sequences, listed below.
1. AUGUAGCAAUAUUACGAGGC
2. GAUCAGCAAUAUUACGCUAC
3. GCUCAGCAAUAUUACGUUCG
4. AAACAGCAAUAUUACGUAUC
5. UAAUAGCAAUAUUACGUCCG
6. GUGCAGCAAUAUUACGUUCU
7. ACUAAGCAAUAUUACGGAAU

result:
-1.47
-1.62
-0.838
-1.97
-0.835
0.673
-2.04

----------
- assay.remarks: self-splicing fitness, log relative to wild type (ln ratio); higher = more splicing; Tetrahymena group I intron in knt gene, E. coli kanamycin selection, DiMSum; sequences stand for … in CUCUCU…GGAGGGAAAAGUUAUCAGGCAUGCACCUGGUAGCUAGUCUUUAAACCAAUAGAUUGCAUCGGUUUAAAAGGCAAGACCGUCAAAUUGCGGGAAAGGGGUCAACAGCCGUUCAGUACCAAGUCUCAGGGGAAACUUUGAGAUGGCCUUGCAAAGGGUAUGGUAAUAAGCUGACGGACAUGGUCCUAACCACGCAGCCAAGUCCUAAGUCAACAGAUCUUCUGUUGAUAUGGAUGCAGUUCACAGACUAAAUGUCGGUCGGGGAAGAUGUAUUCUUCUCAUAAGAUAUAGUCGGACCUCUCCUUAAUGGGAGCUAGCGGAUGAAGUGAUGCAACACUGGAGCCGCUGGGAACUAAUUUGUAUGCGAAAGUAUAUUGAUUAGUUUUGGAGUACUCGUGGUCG
- experimental.context: 30 °C
Give Satisfied when the value for self-splicing fitness (ln) is at least -4. Give Not satisfied when it is less.

1) UCGUAGCAAUAUUACGUGCA: Satisfied
2) AUCAAGCAAUAUUACGUAAU: Satisfied
3) CAUUAGCAAUAUUACGAGUU: Satisfied
4) CGCAAGCAAUAUUACGGGAU: Not satisfied

query: Hi team, for CAGAAGCAAUAUUACGAUUG , is the recorded self-splicing fitness (ln) at or above -4?
result: Satisfied

----------
- assay.remarks: self-splicing fitness, log relative to wild type (ln ratio); higher = more splicing; Tetrahymena group I intron in knt gene, E. coli kanamycin selection, DiMSum; sequences stand for … in CUCUCU…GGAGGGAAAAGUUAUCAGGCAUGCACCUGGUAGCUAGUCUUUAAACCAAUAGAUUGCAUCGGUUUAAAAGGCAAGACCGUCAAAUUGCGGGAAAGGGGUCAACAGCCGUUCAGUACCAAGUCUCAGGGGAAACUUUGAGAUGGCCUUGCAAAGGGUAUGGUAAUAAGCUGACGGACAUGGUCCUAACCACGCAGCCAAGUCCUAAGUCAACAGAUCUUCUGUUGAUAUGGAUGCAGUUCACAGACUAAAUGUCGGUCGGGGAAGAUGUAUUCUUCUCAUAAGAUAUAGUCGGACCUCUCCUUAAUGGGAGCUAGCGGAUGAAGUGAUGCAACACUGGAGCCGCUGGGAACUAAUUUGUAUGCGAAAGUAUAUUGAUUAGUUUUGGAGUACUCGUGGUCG
- experimental.context: 37 °C
Give measured self-splicing fitness (ln) for each item. Keep answers brief.
Numbers only.

Examples from the recorded data:
1. GGGUAGCAAUAUUACGGGAG: -1.44
2. AGUAAGCAAUAUUACGUGAG: -1.07
3. AGUUAGCAAUAUUACGGUGC: -2.44
4. CGCUAGCAAUAUUACGUCAA: -3.07
5. CAACAGCAAUAUUACGCAAA: -2.37
6. AAAGAGCAAUAUUACGUGCC: -2.35
7. CACAAGCAAUAUUACGUUUA: -1.95
8. GAGUAGCAAUAUUACGAUAU: -1.51

Give me self-splicing fitness (ln) for each of these sequences, listed below.
1. GAGUAGCAAUAUUACGACUG
2. CUAUAGCAAUAUUACGAUUU
3. CUUCAGCAAUAUUACGACAG
4. UACUAGCAAUAUUACGCCGA
5. CGAAAGCAAUAUUACGACUU
6. UUCAAGCAAUAUUACGCUUC
7. AUUGAGCAAUAUUACGCGCG
8. GCCAAGCAAUAUUACGAUGC

result:
[-0.96, -0.748, -0.281, -0.403, -0.99, -2.8, -2.22, -0.188]

Attribution: the supplement of paper PMC7877785
